- Tested on: E. coli TESEC Mtb Alr
- protocol_description: growth (OD600 after 10 h); higher = more growth (less inhibition)
- reported_conditions: arabinose 10000000 nM; compound 0.1 mM; raw OD600 reference: median of DMSO wells 0.146, cell-free background 0.041
Structures can show the parent of a compound that is named as a salt.
Entries and their measured growth follow.

| compound | property_name | reported_value |
| --- | --- | --- |
| CCn1cc(C(=O)O)c(=O)c2cc(F)c(N3CCN(C)CC3)cc21 | growth | 0.0516 |

Looking up CN(C)CCCOc1nn(Cc2ccccc2)c2ccccc12 [Benzydamine hydrochloride] , I see its growth listed as 0.146

Entry CC(=O)c1ccc(S(=O)(=O)NC(=O)NC2CCCCC2)cc1 [Acetohexamide] ; growth = 0.156

Form field growth, entry `O=C(O)COC(=O)Cc1ccccc1Nc1c(Cl)cccc1Cl` : 0.132

The recorded growth for CC1(C)S[C@@H]2[C@H](NC(=O)[C@H](C(=O)O)c3ccsc3)C(=O)N2[C@H]1C(=O)O [Ticarcillin sodium] is 0.142

growth reported for this compound `CC(C)c1nc(CN(C)C(=O)N[C@H](C(=O)N[C@@H](Cc2ccccc2)C[C@H](O)[C@H](Cc2ccccc2)NC(=O)OCc2cncs2)C(C)C)cs1` : 0.159

Lab book: growth of Cc1scc2c1N(C(=O)CN1CCN(C)CC1)c1ccccc1NC2=O [Telenzepine dihydrochloride] noted as 0.153

The measured growth associated with CN(C)C(=N)NC(=N)N [Metformin hydrochloride] reads 0.145

----------
Each entry below carries its reported growth.
- Test system: E. coli TESEC Mtb DapB
- protocol_description: growth (OD600 after 10 h); higher = more growth (less inhibition)
- reported_conditions: arabinose induction (level): Low; compound 0.1 mM; raw OD600 reference: median of DMSO wells 0.227, cell-free background 0.041
Structures can show the parent of a compound that is named as a salt.
Lab note: write the figure by itself, no unit.

Worked examples follow.
| compound | growth |
| --- | --- |
| Nc1c2c(nc3ccccc13)CCCC2O (racemic) [Hydroxytacrine maleate (R,S)] | 0.205 |
| COc1cc(Cc2cnc(N)nc2N)cc(OC)c1OC | 0.0572 |
| O=P(O)(O)C(Cl)(Cl)P(=O)(O)O [Clodronate] | 0.212 |
| Cc1ncc(C[n+]2csc(CCO)c2C)c(N)n1 [Thiamine hydrochloride] | 0.217 |
| COc1ccccc1Oc1c(NS(=O)(=O)c2ccc(C(C)(C)C)cc2)nc(-c2ncccn2)nc1OCCO | 0.247 |
| CN(C)CCCN1c2ccccc2CCc2ccccc21 [Imipramine hydrochloride] | 0.243 |
| Cc1[nH]cnc1CN1CCc2c(c3ccccc3n2C)C1=O [Alosetron hydrochloride] | 0.262 |
| Nc1nc(NC2CC2)c2ncn([C@H]3C=C[C@@H](CO)C3)c2n1 [Abacavir Sulfate] | 0.212 |

The reported growth of the compound `CCCCC1(COC(=O)CCC(=O)O)C(=O)N(c2ccccc2)N(c2ccccc2)C1=O` was 0.204

The compound identified as N=C(N)NCC1COC2(CCCCC2)O1 (stereo unspecified) [Guanadrel sulfate] registered its growth at 0.227

Value of measured growth for the entry CC1(C)NC(=O)N(c2ccc([N+](=O)[O-])c(C(F)(F)F)c2)C1=O [Nilutamide] : 0.252

----------
The following compounds are shown together with reported growth values.
- Tested on: E. coli TESEC Mtb Alr
- protocol_description: growth (OD600 after 10 h); higher = more growth (less inhibition)
- reported_conditions: arabinose 10000 nM; compound 0.1 mM; raw OD600 reference: median of DMSO wells 0.264, cell-free background 0.041
Where a name gives a salt, the structure may show the parent alone.
The reply should be a number, written without any unit.

Please review the following examples before continuing.
| compound | growth |
| --- | --- |
| Cn1cnc2c1c(=O)[nH]c(=O)n2C | 0.289 |
| O=C(O)c1cc(=O)c2c(OCC(O)COc3cccc4oc(C(=O)O)cc(=O)c34)cccc2o1 [Cromolyn disodium salt] | 0.275 |
| CCCCOc1ccc(OCCCN2CCOCC2)cc1 [Pramoxine hydrochloride] | 0.263 |
| NCCc1cc[nH]n1 [Betazole hydrochloride] | 0.259 |
| CCOc1nc2cccc(C(=O)O)c2n1Cc1ccc(-c2ccccc2-c2nnn[nH]2)cc1 | 0.285 |
| C=CC(N)CCC(=O)O (stereo unspecified) | 0.278 |
| O=C1CC[C@@H](C(=O)N2CSC[C@H]2C(=O)O)N1 | 0.261 |
| Cc1cc(C)nc(NS(=O)(=O)c2ccc(N)cc2)n1 [Sulfamethazine sodium salt] | 0.252 |
| CC(C)c1nc(CN(C)C(=O)N[C@H](C(=O)N[C@@H](Cc2ccccc2)C[C@H](O)[C@H](Cc2ccccc2)NC(=O)OCc2cncs2)C(C)C)cs1 | 0.221 |
| CN1CCN(C(c2ccccc2)c2ccccc2)CC1 [Cyclizine hydrochloride] | 0.256 |

Lab note: compound CC(=O)O[C@H]1C[C@@]2(C)[C@@H](C[C@@H](O)[C@H]3[C@@]4(C)CC[C@@H](O)[C@@H](C)[C@@H]4CC[C@@]32C)/C1=C(\CCC=C(C)C)C(=O)O [Fusidic acid sodium salt] tested on E. coli TESEC Mtb Alr; recorded growth was 0.0411

Known value: E. coli TESEC Mtb Alr growth of the compound NS(=O)(=O)c1cc2c(cc1Cl)NC(CC1CCCC1)NS2(=O)=O (stereo unspecified) [Cyclopenthiazide] equals 0.254

Hey, E. coli TESEC Mtb Alr data for CN1CCN(CCCN2c3ccccc3Sc3ccc(Cl)cc32)CC1 [Prochlorperazine dimaleate] : growth came out at 0.0394

E. coli TESEC Mtb Alr growth of Cc1cc(C(C)(C)C)cc(C)c1CC1=NCCN1 [Xylometazoline hydrochloride] is 0.261

For `CC(=O)Nc1ccc(CC(=O)O)cc1` on E. coli TESEC Mtb Alr, measured growth was 0.259

Summary line: `c1coc(CNc2ncnc3nc[nH]c23)c1` , E. coli TESEC Mtb Alr, reported growth = 0.252

----------
- Tested on: E. coli TESEC Mtb DapB
- protocol_description: growth (OD600 after 10 h); higher = more growth (less inhibition)
- reported_conditions: arabinose induction (level): Low; compound 0.1 mM; raw OD600 reference: median of DMSO wells 0.227, cell-free background 0.041
Counter-ions that a name gives are not always drawn.
property_name: growth

Some molecules with recorded growth:
| molecule | property_name | reported_value |
| --- | --- | --- |
| Nc1c2c(nc3ccccc13)CCCC2 [Tacrine hydrochloride] | growth | 0.228 |
| CC1(C)O[C@@H]2C[C@H]3[C@@H]4C[C@H](F)C5=CC(=O)CC[C@]5(C)[C@H]4[C@@H](O)C[C@]3(C)[C@]2(C(=O)CO)O1 [Flurandrenolide] | growth | 0.239 |
| CC(C)(C)NCC(O)c1cc(O)cc(O)c1 (stereo not given) [Terbutaline hemisulfate] | growth | 0.221 |

The measured growth associated with `CCCCOc1cc(C(=O)NCCN(CC)CC)c2ccccc2n1` reads 0.25

Lab note: CN1CCCN=C1/C=C/c1cccc(O)c1 [Oxantel pamoate] gave growth of 0.218
